Assay: chemical genetic growth profiling, strain panel (AID 1159580);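 also: tested at 20 µM; growth read once vehicle control cultures reached saturation at 30 °C; lower values mean less growth of the strain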
Conditions: S. cerevisiae deletion strains, growth OD, locus YKL009W, strain mrt4, stronger effect = lower value
Out of some 5,500 compounds screened, about 2,000 (36%) were called active. Inconclusive results (about 18%) are left out. Some of the results follow.
Response field label takes MET when normalized growth is strictly below 1 and NOT MET in all other cases.

molecule: CC1COc2c(N3CCN(C)CC3)c(F)cc3c(=O)c(C(=O)O)cn1c23 (centres undefined)
discreteLabel: NOT MET
//
molecule: CC(C)NCC(O)COc1cccc2[nH]ccc12 (centres undefined)
discreteLabel: MET
//
molecule: COC(=O)c1cc(=O)c(O)c2c(O)c(O)ccc2c1
discreteLabel: MET
//
molecule: C[C@@H]1O[C@@H](O[C@H]2[C@H](Oc3cc(O)c4c(=O)cc(-c5ccc(O)cc5)oc4c3)O[C@H](CO)[C@@H](O)[C@@H]2O)[C@H](O)[C@H](O)[C@H]1O
discreteLabel: MET
//
molecule: O=C(Oc1cc(OC(=O)c2ccccc2)c2c(c1)O[C@H](c1ccc(OC(=O)c3ccccc3)c(OC(=O)c3ccccc3)c1)[C@@H](OC(=O)c1ccccc1)C2)c1ccccc1
discreteLabel: NOT MET
//
molecule: CN1CC(=O)N=C1N
discreteLabel: NOT MET
//
molecule: COc1ccc(C(=O)CC(=O)O)c2c1C=CC(C)(C)O2
discreteLabel: NOT MET
//
molecule: C[n+]1c2cc(N)ccc2cc2ccc(N)cc21
discreteLabel: MET
//
molecule: CC(=O)Oc1cc(OC(C)=O)c2c(c1)O[C@H](c1ccc(OC(C)=O)c(OC(C)=O)c1)[C@@H](OC(C)=O)C2
discreteLabel: NOT MET
//
molecule: CCCCNC(=O)NS(=O)(=O)c1ccc(C)cc1
discreteLabel: MET
//
molecule: Cc1ccc(S(=O)(=O)NC(=O)NN2CCCCCC2)cc1
discreteLabel: NOT MET
